Sourced from ChEMBL document CHEMBL4052827

List of Papp at 4 h, 100 µM values.
experiment: Permeability of the compound at pH 5.5 at 100 uM after 4 hrs by PAMPA
Value expressed in ×10⁻⁶ cm/s; do not type the unit.

Check out these entries, answers already filled in.
1) CC(C)(N)CCCN(C[C@H]1Cc2ccccc2CN1)[C@H]1CCCc2cccnc21: 2
2) CC(C)(CCN(C[C@H]1Cc2ccccc2CN1)[C@H]1CCCc2cccnc21)CNC1CCOCC1: 5.7
3) c1ccc2c(c1)CN[C@@H](CN(CCCCNC1CCSCC1)[C@H]1CCCc3cccnc31)C2: 4.6
4) NCc1ccccc1CN(C[C@H]1Cc2ccccc2CN1)[C@H]1CCCc2cccnc21: 18.4
5) CC1(C)CCC(NCC(C)(C)CCN(C[C@H]2Cc3ccccc3CN2)[C@H]2CCCc3cccnc32)CC1: 1.1
6) c1ccc2c(c1)CN[C@@H](CN(CCCCNCC1CCOCC1)[C@H]1CCCc3cccnc31)C2: 0.6
7) c1ccc2c(c1)CN[C@@H](CN(CCCCNCC1CCCCC1)[C@H]1CCCc3cccnc31)C2: 2.1
8) CC(C)(CCN(C[C@H]1Cc2ccccc2CN1)[C@H]1CCCc2cccnc21)CNCC1CCOCC1: 6.2

Input `C(=C\CN(C[C@H]1Cc2ccccc2CN1)[C@H]1CCCc2cccnc21)/CNCc1ccccn1` , output reported Papp at 4 h, 100 µM.
1.8
